# tested.system: DNA gyrase from ciprofloxacin resistant M. smegmatis mc^2155 strain (Mycolicibacterium smegmatis, UniProt A0QNE0+P48354)
# measurement.context: read-out: IC50 (no inhibition up to concentration)
readout.type: IC50

Just so you know, measured IC50 for O=C(O)c1cn(C2CC2)c2cc(N3CCNCC3)c(F)cc2c1=O [ciprofloxacin, reference compound] came out at > 1210 µM
